test system: BRSK1; conditions: concentration: 1 μM, replicates: in singlicate; n = 1;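 note: KINOMEscan kinase panel screen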
MEASUREMENT KIND: %Inh (%)

INSERT INTO measurements (compound, measurement_kind, unit_text, endpoint_result) VALUES
  ('C[C@@H](Oc1cc(-n2cnc3ccc(NC(=O)NC(C)(C)C)cc32)sc1C(N)=O)c1ccccc1Cl', '%Inh', '%', 10),
  ('O=C1Cc2cc(Nc3nc(NCc4cccc(S(=O)(=O)C(F)(F)F)c4)ncc3C(F)(F)F)ccc2N1', '%Inh', '%', 3),
  ('O=c1cc(N2CCOCC2)nc2n(Cc3cccc(Cl)c3Cl)c(C3CC3)nn12', '%Inh', '%', 3),
  ('O=C(c1ccc(-c2cc(-c3c[nH]nc3-c3ccccn3)ccn2)cc1)N1CCOCC1', '%Inh', '%', 0),
  ('COc1cc(Nc2nccc(N3CCC(NC(=O)c4cccc(NC(C)=O)c4)C3)n2)cc(OC)c1OC (centres unmarked)', '%Inh', '%', 26),
  ('CN1c2ccc(CNc3ccc(F)cc3)cc2-c2c(cnn2C)S1(=O)=O', '%Inh', '%', 0),
  ('[2H]C([2H])(c1cccc(C(F)(F)F)c1C)n1ccn2c(=O)nc(N3CCOCC3)cc12', '%Inh', '%', 7),
  ('O=C(NOCC1CC1)c1ccc(F)c(F)c1Nc1ccc(I)cc1Cl', '%Inh', '%', 0);

###

# %Inh per record follows
system: IKK-beta; construct: gene IKBKB; conditions: concentration: 1 μM, replicates: in singlicate; n = 1
MEASUREMENT KIND: %Inh

INSERT INTO assay_data (molecule, measurement_kind, endpoint_result) VALUES
  ('CSc1ccc(-c2cc3ncnc(SCC(=O)O)c3s2)cc1', '%Inh', '0%'),
  ('CCc1nc(-c2cccc(C)c2)c(-c2ccnc(NCc3ccccc3)c2)s1', '%Inh', '2%'),
  ('O=C1Cc2cc(Nc3nc(NCc4cccc(S(=O)(=O)C(F)(F)F)c4)ncc3C(F)(F)F)ccc2N1', '%Inh', '8%'),
  ('NS(=O)(=O)CCc1cccc(Nc2nccc(-c3c(-c4cccc(NC(=O)c5c(F)cccc5F)c4)nn4ccccc34)n2)c1 [GSK336735]', '%Inh', '0%'),
  ('CC(C)Oc1ccc2c(-c3ccnc(Nc4ccc(N5CCN(C)CC5)cc4)n3)cnn2n1 [GW696155]', '%Inh', '100%'),
  ('CN1c2ccc(CNc3ccc(F)cc3)cc2-c2c(cnn2C)S1(=O)=O', '%Inh', '0%'),
  ('COC(=O)Nc1nc2cc(Oc3ccc(NC(=O)Nc4cc(F)ccc4F)cc3)ccc2[nH]1.Cl [GW701424]', '%Inh', '4%'),
  ('O=c1cc(N2CCOCC2)nc2n(Cc3cccc(C(F)(F)F)c3)ccn12 [GSK2297543]', '%Inh', '0%');

###

# %Inh per record follows
system: TLK1; settings: concentration: 1 μM, replicates: in singlicate; n = 1
MEASUREMENT KIND: %Inh

INSERT INTO assay_data (compound, measurement_kind, endpoint_result) VALUES
  ('Cc1cccc(-c2nc(Nc3ccc4ncsc4c3)c3ccccc3n2)n1 [GW867588]', '%Inh', '0%'),
  ('CSc1ccc(-c2cc3ncnc(SCC(=O)O)c3s2)cc1', '%Inh', '2%'),
  ('Cc1c(Cn2c(C)nn3c(=O)cc(N4CCOC(C)C4)nc23)cccc1C(F)(F)F (centres unmarked) [GSK2344444]', '%Inh', '0%'),
  ('O=c1cc(N2CCOCC2)nc2n(Cc3cccc(F)c3)ccn12 [GSK2297430]', '%Inh', '6%'),
  ('Nc1nccc(-c2c(-c3ccc(F)cc3)ncn2C2CCN(CC(F)(F)F)CC2)n1 [SB-236560]', '%Inh', '11%');

###

# %Inh per record follows
test system: FLT1; details: concentration: 1 μM, replicates: in singlicate; n = 1
MEASUREMENT KIND: %Inh (%)

INSERT INTO results (structure_smiles, assay_target, measurement_kind, endpoint_result) VALUES
  ('O=C(Nc1cccc(-c2nn3ncccc3c2-c2ccnc(Nc3cccc(C(F)(F)F)c3)n2)c1)c1c(F)cccc1F', 'FLT1', '%Inh', 91.5),
  ('COC(=O)Nc1nc2cc(Oc3ccc(NC(=O)Nc4cc(F)ccc4F)cc3)ccc2[nH]1.Cl', 'FLT1', '%Inh', 99),
  ('O=c1cc(N2CCOCC2)nc2n(Cc3cccc4ccccc34)ccn12', 'FLT1', '%Inh', 30),
  ('O=C(Nc1n[nH]c2cc(-c3cccc(F)c3)ccc12)C1CC1', 'FLT1', '%Inh', 0);

###

system: SLK; conditions: concentration: 1 μM, replicates: in singlicate; n = 1
MEASUREMENT KIND: %Inh (%)

INSERT INTO measurements (compound, endpoint_result) VALUES
  ('CNc1ncnc2[nH]ncc12 [SKF-18355]', 10),
  ('CCc1nc(-c2cccc(C)c2)c(-c2ccnc(NCc3ccccc3)c2)s1', 7),
  ('CC(C)Oc1ccc2c(-c3ccnc(Nc4ccc(N5CCN(C)CC5)cc4)n3)cnn2n1 [GW696155]', 10),
  ('Cc1cccc(-c2nc(-c3ccc(S(C)(=O)=O)cc3)sc2-c2ccncc2)c1', 26),
  ('Cc1nnc(-c2ccc(C)c(-c3ccc(C(=O)Nc4ccc(NS(C)(=O)=O)cc4)cc3)c2)o1 [GW702865]', 0),
  ('CCn1cnc2c(N)ncnc21 [GW345098]', 18),
  ('Cc1ccc(C(=O)NCC(N)=O)cc1-n1c(C)cc(OCc2ccc(F)cc2F)c(Br)c1=O', 24),
  ('N#Cc1ccc(-c2cc(-c3c[nH]nc3-c3ccccn3)ccn2)cc1 [GW693028]', 6),
  ('O=c1cc(N2CCOCC2)nc2n(Cc3cccc(C(F)(F)F)c3)ccn12 [GSK2297543]', 18),
  ('NS(=O)(=O)c1cccc(-c2ccc3ncc(N4CCOCC4)nc3c2)c1 [GSK1535721]', 2),
  ('CN1c2ccc(CNc3ccc(F)cc3)cc2-c2c(cnn2C)S1(=O)=O', 0),
  ('O=C(NCCCN1CCOCC1)c1cccc(Nc2nccc(Nc3ccc(Oc4ccccc4)cc3)n2)c1 [GW663929]', 8),
  ('Fc1ccc(-c2ncn(CCCN3CCOCC3)c2-c2cccnc2)cc1 [SB-211743]', 25),
  ('O=C(NCCNc1ccnc(Nc2ccc(F)cc2)n1)c1cc2ccccc2s1 [GSK1379874]', 17),
  ('Cc1cn2c(=O)cc(N3CCOCC3)nc2n1Cc1cccc(Cl)c1Cl [GSK2334006]', 32),
  ('O=C(NOCC1CC1)c1ccc(F)c(F)c1Nc1ccc(I)cc1Cl', 0),
  ('Cl.Oc1cccc(Nc2ccnc3cc(-c4ccncc4)ccc23)c1 [GW494601]', 11),
  ('Cc1cccc(-c2nc(Nc3ccc4ncsc4c3)c3ccccc3n2)n1 [GW867588]', 7),
  ('CN(C1=C(c2ccccc2)C(=O)NC1=O)c1ccccc1 [SB-334860]', 10);

###

system: PRKD2; conditions: concentration: 1 μM, replicates: in singlicate; n = 1
MEASUREMENT KIND: %Inh (%)

INSERT INTO assay_data (molecule, measurement_kind, endpoint_result) VALUES
  ('CCc1nc(-c2cccc(C)c2)c(-c2ccnc(NCc3ccccc3)c2)s1', '%Inh', 13),
  ('Cc1nnc(-c2ccc3ncc(-c4ccc(S(C)=O)cc4)n3c2)o1 (centres unmarked)', '%Inh', 13),
  ('CN(C(=O)c1ccc(-c2cc(-c3c[nH]nc3-c3ccccn3)ccn2)cc1)C1CCOCC1 [GW810083]', '%Inh', 0),
  ('Cc1cn2c(=O)cc(N3CCOCC3)nc2n1Cc1cccc(Cl)c1Cl [GSK2334006]', '%Inh', 10),
  ('Cc1cccc(-c2nc(Nc3ccc4ncsc4c3)c3ccccc3n2)n1 [GW867588]', '%Inh', 99.8),
  ('COc1ccc(COc2cc(-n3cnc4ccccc43)sc2C(N)=O)cc1 [GSK1024304]', '%Inh', 24),
  ('CCCCCc1nc2c(N)ncnc2n1CCCCC [SKF-97255]', '%Inh', 0),
  ('NS(=O)(=O)c1cccc(-c2ccc3nccc(-c4cccc(S(N)(=O)=O)c4)c3c2)c1 [GW867253]', '%Inh', 0),
  ('NS(=O)(=O)c1cccc(-c2ccc3ncc(N4CCOCC4)nc3c2)c1 [GSK1535721]', '%Inh', 20),
  ('COCCNC(=O)c1ccc(-c2cc(C(=O)NC3CC3)cc(F)c2C)cc1 [GW868318]', '%Inh', 0),
  ('NCC(NC(=O)c1cc(-c2cn[nH]c2)c(-c2ccnc3[nH]ccc23)s1)c1ccccc1.O=C(O)C(F)(F)F.O=C(O)C(F)(F)F (centres unmarked) [GSK1325775]', '%Inh', 45),
  ('CN1c2ccc(NCc3ccc(F)cc3)cc2-c2c(cnn2C)S1(=O)=O', '%Inh', 1),
  ('Cc1c2ccc(N(C)c3ccnc(Nc4cccc(S(N)(=O)=O)c4)n3)cc2nn1Cc1ccccc1.Cl.Cl [GW787226]', '%Inh', 0),
  ('COc1ccc(Nc2ncc(C#N)c(Nc3ccccc3C(N)=O)n2)cc1N1CCN(C)CC1.Cl [GSK1558669]', '%Inh', 89),
  ('O=C1Cc2cc(Nc3nc(NCc4cccc(S(=O)(=O)C(F)(F)F)c4)ncc3C(F)(F)F)ccc2N1', '%Inh', 0),
  ('CNc1ncnc2[nH]ncc12 [SKF-18355]', '%Inh', 0),
  ('COc1ccc(Nc2nccc(N3CCC(NC(=O)Nc4cccc(C(C)=O)c4)C3)n2)cc1 (centres unmarked) [GSK1379731]', '%Inh', 11),
  ('CCc1ccnc(/C=C/c2n[nH]c3cc(Sc4ccccc4C(=O)NC)ccc23)c1', '%Inh', 15),
  ('Fc1ccc(-c2ncn(CCCN3CCOCC3)c2-c2cccnc2)cc1 [SB-211743]', '%Inh', 6),
  ('O=C(NCCNc1ccnc(Nc2ccc(F)cc2)n1)Nc1ccccc1F [GSK1379880]', '%Inh', 0),
  ('COc1cc2c(cc1OCCN1CCN(C)CC1)ncc1c3ccc(C#N)cc3[nH]c21', '%Inh', 0),
  ('O=c1cc(N2CCOCC2)nc2n(Cc3cccc(Cl)c3Cl)c(C3CC3)nn12 [GSK2358994]', '%Inh', 0),
  ('Cc1c(Cn2c(C)nn3c(=O)cc(N4CCOC(C)C4)nc23)cccc1C(F)(F)F (centres unmarked) [GSK2344444]', '%Inh', 0),
  ('c1ccc(-c2cc(-c3c[nH]nc3-c3ccccn3)ccn2)cc1 [GW576604]', '%Inh', 49),
  ('Cl.Nc1ncnc2occ(-c3ccc(NC(=O)Nc4cc(C(F)(F)F)ccc4F)cc3)c12 [SB-707548]', '%Inh', 20),
  ('O=C(c1ccc(-c2cc(-c3c[nH]nc3-c3ccccn3)ccn2)cc1)N1CCOCC1 [GW812171]', '%Inh', 17),
  ('CN(C1=C(c2ccccc2)C(=O)NC1=O)c1ccccc1 [SB-334860]', '%Inh', 14),
  ('Nc1nccc(-c2c(-c3ccc(F)cc3)ncn2C2CCN(CC(F)(F)F)CC2)n1 [SB-236560]', '%Inh', 0),
  ('O=C(Nc1cccc(-c2nn3ncccc3c2-c2ccnc(Nc3cccc(C(F)(F)F)c3)n2)c1)c1c(F)cccc1F [GSK299495]', '%Inh', 0),
  ('c1ccc(-c2n[nH]cc2-c2ccnc3ccccc23)nc1 [GW271431]', '%Inh', 14),
  ('Cc1nnc(-c2ccc(C)c(-c3ccc(C(=O)Nc4ccc(NS(C)(=O)=O)cc4)cc3)c2)o1 [GW702865]', '%Inh', 0),
  ('COc1ccc(S(=O)(=O)NC2CCN(c3cc(C)nc(Nc4cccc(C#N)c4)n3)CC2)cc1.O=C(O)C(F)(F)F [GSK1653539]', '%Inh', 19),
  ('CCn1cnc2c(N)ncnc21 [GW345098]', '%Inh', 0),
  ('COc1cc(Nc2nccc(N3CCC(NC(=O)c4cccc(NC(C)=O)c4)C3)n2)cc(OC)c1OC (centres unmarked) [GSK1379754]', '%Inh', 0),
  ('C[C@@H](Oc1cc(-n2cnc3ccc(NC(=O)NC(C)(C)C)cc32)sc1C(N)=O)c1ccccc1Cl [GSK346294]', '%Inh', 14);
